Values were extracted from PubChem BioAssay.

assay: loss of swimming-algae plug formation – whole organism, Chlamydomonas reinhardtii, WT vs cilia-less mutant, absorbance, 96-well, primary screen (AID 463189); conditions: Chlamydomonas reinhardtii gravitaxis, OD600 absorbance, 2 days; at 10 µM;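 further: 0% = wild type cc124 cells in DMSO and 100% = ciliumless bld1 mutant cells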
The source made the active and inactive calls.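 How the source made its calls: active means inhibition at or above 50% relative to wild type and mutant plate controls; inactive means inhibition below 50%.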
Possible outcomes: active, inactive

>  <compound>
COc1cccc(OC)c1OCCNCC1COc2ccccc2O1 (stereo not given)

>  <category>
inactive

$$$$
>  <compound>
CCN1CCCC1CNC(=O)c1cc(S(N)(=O)=O)ccc1OC (stereo not given)

>  <category>
inactive

$$$$
>  <compound>
O=NN(CCCl)C(=O)NCCCl

>  <category>
inactive

$$$$
>  <compound>
COC(=O)C1=C(C)NC(C)=C(C(=O)OCCN(C)Cc2ccccc2)C1c1cccc([N+](=O)[O-])c1 (stereo not given)

>  <category>
inactive

$$$$
>  <compound>
Oc1c(Cl)cc(Cl)cc1Sc1cc(Cl)cc(Cl)c1O

>  <category>
active

$$$$
>  <compound>
CNC1(C)C2CCC(C2)C1(C)C (stereo not given)

>  <category>
inactive

$$$$
>  <compound>
CC(C)NCC(O)COc1cccc2ccccc12 (stereo not given)

>  <category>
inactive

$$$$
>  <compound>
C[C@H]1C[C@H]2[C@@H]3CCC4=CC(=O)C=C[C@]4(C)[C@@]3(Cl)[C@@H](O)C[C@]2(C)[C@@]1(O)C(=O)CO

>  <category>
inactive

$$$$
>  <compound>
O=C(O)CCC(NC(=O)c1ccccc1C(=O)O)C(=O)O (stereo not given)

>  <category>
inactive

$$$$
>  <compound>
CCCCCCCCCCC/C=C\C(C)(C)/C=C\CCCC(=O)O

>  <category>
inactive

$$$$
>  <compound>
Oc1cc2c(c(Cl)c1O)CCNCC2c1ccccc1 (stereo not given)

>  <category>
inactive

$$$$
>  <compound>
CC(C)=CCC/C(C)=C/CC/C(C)=C/CSc1ccccc1C(=O)O

>  <category>
inactive

$$$$
>  <compound>
N=C(N)c1ccc(N)cc1

>  <category>
inactive

$$$$
>  <compound>
COc1ccccc1N1CCN(CCN(C(=O)c2ccc(I)cc2)c2ccccn2)CC1

>  <category>
inactive

$$$$
>  <compound>
O=C(O)CCc1nc(-c2ccccc2)c(-c2ccccc2)o1

>  <category>
inactive

$$$$
>  <compound>
CCCn1c(=O)c2[nH]c(-c3ccc(OCC(=O)Nc4ccc(C#N)cc4)cc3)nc2n(CCC)c1=O

>  <category>
inactive

$$$$
>  <compound>
NC(N)=[N+]1CCc2ccccc2C1

>  <category>
inactive

$$$$
>  <compound>
COc1ccc2[nH]c(I)c(CCNC(C)=O)c2c1

>  <category>
inactive

$$$$
>  <compound>
CC(/C=C/c1cccc(Oc2ccc(F)cc2)c1)N(O)C(N)=O (stereo not given)

>  <category>
inactive

$$$$
>  <compound>
OCCOCCN1CCN(C(c2ccccc2)c2ccc(Cl)cc2)CC1 (stereo not given)

>  <category>
inactive

$$$$
>  <compound>
NOCC(=O)O

>  <category>
inactive

$$$$
>  <compound>
CCSC(N)=Nc1ccc(C(F)(F)F)cc1

>  <category>
inactive

$$$$
>  <compound>
C[C@]12CC[C@@H]3c4ccc(O)cc4CC[C@H]3[C@@H]1CC[C@@H]2O

>  <category>
inactive

$$$$
>  <compound>
C=C/C(C)=C/[C@@]1(C)SC(=O)C(C)=C1O

>  <category>
inactive

$$$$
>  <compound>
COc1ccc2c(c1)c(CC(=O)O)c(C)n2Cc1ccc(F)cc1

>  <category>
inactive

$$$$
>  <compound>
C/C=C1\C(=O)CC2C3CCC4=CC(=O)CC[C@]4(C)C3CC[C@]12C (stereo not given in full)

>  <category>
inactive

$$$$
>  <compound>
CC1(C)CCC(NC(=O)[C@@H](N)CCC(=O)O)CC1

>  <category>
inactive

$$$$
>  <compound>
CC(COc1ccc(/C=C/c2ccccc2)cc1)[N+](C)(C)C (stereo not given)

>  <category>
active

$$$$
>  <compound>
CCCCCCCCCCCCCCCCCCNC(=O)OCC(COP(=O)([O-])OCC[n+]1ccsc1)OC (stereo not given)

>  <category>
inactive

$$$$
>  <compound>
NCCNC(=O)c1ccc(Cl)cc1

>  <category>
inactive

$$$$
>  <compound>
CC(C)C[C@H](NC(=O)[C@H](O)[C@H](N)Cc1ccccc1)C(=O)O

>  <category>
inactive

$$$$
>  <compound>
O=S(=O)(c1cccc2c(I)cccc12)N1CCCNCC1

>  <category>
inactive

$$$$
>  <compound>
Oc1ccc(Cn2cc[nH]c2=S)cc1

>  <category>
inactive

$$$$
>  <compound>
c1cnc(N2CCN(Cc3ccc4c(c3)OCO4)CC2)nc1

>  <category>
inactive

$$$$
>  <compound>
N[C@H](C(=O)O)[C@H]1C[C@@H]1C(=O)O

>  <category>
inactive

$$$$
>  <compound>
NCCSSCCN

>  <category>
inactive

$$$$
>  <compound>
O=C(O)C1=CC(=C(c2ccc(O)c(C(=O)O)c2)c2ccc(O)c(C(=O)O)c2)C=CC1=O

>  <category>
inactive

$$$$
>  <compound>
NC(N)=NCCCCN=C(N)N

>  <category>
inactive

$$$$
>  <compound>
CC(C)(C)NCC(O)COc1nsnc1N1CCOCC1 (stereo not given)

>  <category>
inactive

$$$$
>  <compound>
NCCCC(=O)O

>  <category>
inactive

$$$$
>  <compound>
COc1cc2c(cc1C(F)(F)F)N(C(=O)Nc1cc(F)cc(-c3cccnc3)c1)CC2

>  <category>
inactive

$$$$
>  <compound>
CCCCCCCC/C=C\CCCCCCCC(=O)NCCc1ccc(O)c(O)c1

>  <category>
inactive

$$$$
>  <compound>
COc1cccc(-c2cc(=O)c3ccccc3o2)c1N

>  <category>
inactive

$$$$
>  <compound>
S=C(Nc1ccccc1)Nc1nccs1

>  <category>
inactive

$$$$
>  <compound>
CCN(CC)CCCC(C)Nc1c2ccc(Cl)cc2nc2ccc(OC)cc12 (stereo not given)

>  <category>
inactive

$$$$
>  <compound>
FC(F)(F)c1ccccc1-n1ccnc1

>  <category>
inactive

$$$$
>  <compound>
CC(N)=NCCC[C@H](N)C(=O)O

>  <category>
inactive

$$$$
>  <compound>
CCN1CCC[C@H]1CNC(=O)c1cc(S(N)(=O)=O)ccc1OC

>  <category>
inactive

$$$$
>  <compound>
O=C1c2c(O)cc(O)cc2OC(c2ccc(O)c(O)c2)C1O (stereo not given)

>  <category>
inactive

$$$$
>  <compound>
Nc1c2c(nc3ccccc13)CCCC2

>  <category>
inactive

$$$$

* * *

assay: inhibitors of TNFa-induced NFkB p65 translocation, primary screen, imaging, HUVEC, MLSMR starter and 10KST1 sets (AID 438); conditions: HUVEC TNFa-induced p65 nuclear translocation; measured here: nuclei count (cytotoxicity indicator), at 2.08 µM;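 further: compound added about 3h40 before a 20 min TNFalpha stimulation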

>  <compound>
COc1nc2ccc(C)cc2cc1-c1noc(-c2cccnc2)n1

>  <cell count>
243

$$$$
>  <compound>
CC(C)OP(=O)(c1ccc(N(C)C)cc1)C(O)c1ccccc1F (stereo unspecified)

>  <cell count>
720

$$$$
>  <compound>
Cc1ccccc1CS(=O)(=O)Cc1ccc(C(=O)NCCCN2CCOCC2)o1

>  <cell count>
434

$$$$
>  <compound>
O=C(CSc1ncnc2ccccc12)N1CCN(c2ccccc2)CC1

>  <cell count>
567

$$$$
>  <compound>
COc1cccc(OC)c1C(=O)Nc1cccc(C(C)=O)c1

>  <cell count>
734

$$$$
>  <compound>
Cc1nc2ccc(S(=O)(=O)NCC(=O)O)cc2s1

>  <cell count>
423

$$$$
>  <compound>
O=c1oc2ccccc2c(N2CCCCC2)c1CN1CCCCC1

>  <cell count>
731

$$$$
>  <compound>
O=C(Cc1ccc(S(=O)(=O)N2CCCC2)s1)Nc1nc2c(s1)CCCC2

>  <cell count>
577

$$$$
>  <compound>
CCSc1nnc(NC(=O)c2nn(C(C)C)c(=O)c3ccccc23)s1

>  <cell count>
221

$$$$
>  <compound>
CCn1c(CNc2ccc(C)cc2)nnc1SCC(=O)NCc1ccccc1

>  <cell count>
648

$$$$
>  <compound>
CCOC(=O)c1[nH]c2ccccc2c1NC(=O)c1ccco1

>  <cell count>
671

$$$$

* * *

assay: endothelial E-selectin expression blockers – imaging, HUVEC, immunofluorescence, MLSMR starter and 10KST1 sets, primary screen (AID 487); settings: HUVEC TNFalpha-induced E-selectin immunofluorescence imaging, at 2 µM; stronger effect = higher value;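 further: signal is fraction of cell area covered by stained E-selectin grains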

>  <compound>
Cc1ccc(NC(=O)C2CCCN2C(=O)Oc2ccccc2)cc1 (stereo not drawn)

>  <unit_of_measure>
%

>  <inhibition>
26.5

$$$$
>  <compound>
CCOc1ccc(CN2CCN(c3cc(C)nc4c5c(C)cc(C)nc5nn34)CC2)cc1

>  <unit_of_measure>
%

>  <inhibition>
1.9

$$$$
>  <compound>
COc1ccc(-c2cc(C(F)(F)F)nc(SCCC(=O)N3CCOCC3)n2)cc1

>  <unit_of_measure>
%

>  <inhibition>
-59.7

$$$$
>  <compound>
COc1ccc(-c2ccc(-c3nnc(-c4ccncc4)o3)cc2)cc1

>  <unit_of_measure>
%

>  <inhibition>
-76.9

$$$$
>  <compound>
CCCCCOc1ccc(Cl)cc1CN1CCOCC1

>  <unit_of_measure>
%

>  <inhibition>
-77.3

$$$$
>  <compound>
O=C(NCCN1CCOCC1)c1ccc2c(c1)N(Cc1ccccc1)C(=O)CS2

>  <unit_of_measure>
%

>  <inhibition>
20.7

$$$$
>  <compound>
COc1ccccc1C(O)P(=O)(OC(C)C)c1ccc(N(C)C)cc1 (stereo not drawn)

>  <unit_of_measure>
%

>  <inhibition>
0

$$$$
>  <compound>
Fc1ccc(C(c2ccc(F)cc2)N2CCN(C/C=C/c3ccccc3)CC2)cc1

>  <unit_of_measure>
%

>  <inhibition>
-61.3

$$$$
>  <compound>
CCCCNC(=O)OC(C)CNC(=O)Oc1cccc(C)c1 (stereo not drawn)

>  <unit_of_measure>
%

>  <inhibition>
41.7

$$$$
>  <compound>
COc1ccc(-n2c(C)c(C(C)=O)c3cc(O)ccc32)cc1

>  <unit_of_measure>
%

>  <inhibition>
4.2

$$$$
>  <compound>
COc1ccccc1CN1CC(C(=O)N2CCN(c3ccc(F)cc3)CC2)CC1=O (stereo not drawn)

>  <unit_of_measure>
%

>  <inhibition>
-19.6

$$$$
>  <compound>
Cc1cc(NC(=O)c2cnn3cccnc23)no1

>  <unit_of_measure>
%

>  <inhibition>
-33.8

$$$$
>  <compound>
Cc1ccccc1Cn1nc(C)c(NC(=O)c2noc3c2CCCC3)c1C

>  <unit_of_measure>
%

>  <inhibition>
-13.5

$$$$
>  <compound>
Cc1nc2ccccn2c1/C(O)=C1\C(=O)C(=O)N(CCN2CCOCC2)C1c1cccs1 (stereo not drawn)

>  <unit_of_measure>
%

>  <inhibition>
-41.3

$$$$
>  <compound>
CC(C)NC(=O)CSc1nnc(-c2ccc(C(C)(C)C)cc2)n1C

>  <unit_of_measure>
%

>  <inhibition>
8

$$$$
>  <compound>
CC(=O)Nc1ccn(-c2ccccc2)n1

>  <unit_of_measure>
%

>  <inhibition>
-113

$$$$
>  <compound>
CC1CCN(S(=O)(=O)c2ccc(S(=O)(=O)NCC(=O)C(C)(C)C)cc2)CC1

>  <unit_of_measure>
%

>  <inhibition>
-189

$$$$
>  <compound>
COC(=O)Cn1cnc2c(nnn2-c2ccc(C)cc2)c1=O

>  <unit_of_measure>
%

>  <inhibition>
-78.1

$$$$
>  <compound>
O=c1oc2ccccc2c(N2CCCCC2)c1CN1CCCCC1

>  <unit_of_measure>
%

>  <inhibition>
25.6

$$$$
>  <compound>
O=C(NCc1ccco1)Nc1ccc2nsnc2c1

>  <unit_of_measure>
%

>  <inhibition>
-138

$$$$
>  <compound>
COc1cc(NS(=O)(=O)c2ccc(Br)s2)cc(OC)c1

>  <unit_of_measure>
%

>  <inhibition>
-77.9

$$$$
>  <compound>
CC(C)n1c(=NC(=O)c2ccco2)c(C#N)cc2c(=O)n3ccccc3cc21

>  <unit_of_measure>
%

>  <inhibition>
-45.7

$$$$
>  <compound>
CC(C)Oc1cccc(-c2cc(C(=O)N3CCN(S(C)(=O)=O)CC3)c3ccccc3n2)c1

>  <unit_of_measure>
%

>  <inhibition>
-49

$$$$
